Target: Cytochrome P450 2B6 (Homo sapiens, UniProt P20813)
Sequence (P20813 whole entry): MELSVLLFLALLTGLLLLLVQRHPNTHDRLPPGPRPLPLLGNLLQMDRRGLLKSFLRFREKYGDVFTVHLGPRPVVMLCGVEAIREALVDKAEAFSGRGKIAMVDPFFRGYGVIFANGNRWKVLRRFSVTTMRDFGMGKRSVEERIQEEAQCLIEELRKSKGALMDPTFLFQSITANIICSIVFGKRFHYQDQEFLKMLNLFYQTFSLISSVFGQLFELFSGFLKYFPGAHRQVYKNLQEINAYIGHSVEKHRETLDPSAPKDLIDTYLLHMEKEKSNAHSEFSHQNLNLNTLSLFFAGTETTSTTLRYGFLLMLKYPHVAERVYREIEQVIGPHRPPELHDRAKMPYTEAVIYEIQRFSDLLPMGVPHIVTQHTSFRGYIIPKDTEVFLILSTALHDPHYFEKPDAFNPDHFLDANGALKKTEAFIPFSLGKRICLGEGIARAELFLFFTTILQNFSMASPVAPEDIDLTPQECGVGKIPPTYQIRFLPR
MEASURED PROPERTY: IC50 (µM)
Answer in µM, number only, no unit symbol.

[in] Can you look up the measured IC50 of C=CC(=O)N1CCC[C@@H](n2nc(-c3ccc(Oc4ccccc4)cc3)c3c(N)ncnc32)C1 [IBRUTINIB] for me?
[out] 11.1

###

test: Oral bioavailability in rat at 0.5 mg/kg; assay type: ADME, organism-based; conditions: in vivo
MEASURED PROPERTY: bioavailability
Express your answer as a number followed by its unit.

>  <COMPOUND>
C=CC(=O)N1C[C@@H]2C[C@H]1CN2c1ccc(C(N)=O)c(Oc2ccc(Oc3ccccc3)cc2)n1

>  <bioavailability>
47%

$$$$

Consider the record given below.
[in] Can you look up the measured bioavailability of C=CC(=O)N1CCC[C@@H](n2nc(-c3ccc(Oc4ccccc4)cc3)c3c(N)ncnc32)C1 [IBRUTINIB] for me?
[out] 12%

###

target: Cytochrome P450 2C9 (Homo sapiens, UniProt P11712)
Sequence (P11712 whole entry): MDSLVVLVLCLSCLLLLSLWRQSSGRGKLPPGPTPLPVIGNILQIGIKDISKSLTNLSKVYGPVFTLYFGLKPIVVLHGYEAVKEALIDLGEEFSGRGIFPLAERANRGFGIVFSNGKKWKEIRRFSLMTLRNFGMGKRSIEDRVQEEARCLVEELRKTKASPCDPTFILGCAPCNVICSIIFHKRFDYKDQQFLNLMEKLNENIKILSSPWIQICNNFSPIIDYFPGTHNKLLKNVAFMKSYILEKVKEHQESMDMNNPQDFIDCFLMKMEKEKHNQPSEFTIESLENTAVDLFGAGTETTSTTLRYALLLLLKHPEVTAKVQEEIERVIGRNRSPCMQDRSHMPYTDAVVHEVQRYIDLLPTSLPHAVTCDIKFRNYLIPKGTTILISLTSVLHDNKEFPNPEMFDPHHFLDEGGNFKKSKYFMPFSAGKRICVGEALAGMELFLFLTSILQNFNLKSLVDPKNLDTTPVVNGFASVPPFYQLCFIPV
MEASURED PROPERTY: IC50
Express your answer as a number followed by its unit.

[in] Form: Entry = C=CC(=O)N1CCC[C@@H](n2nc(-c3ccc(Oc4ccccc4)cc3)c3c(N)ncnc32)C1 | System = Cytochrome P450 2C9 (Homo sapiens, UniProt P11712) | IC50 = ____
[out] 8.5 µM

###

experiment: Permeability from apical to basolateral side in human Caco2 cells; assay type: ADME, cell-based; details: Caco-2, read-out: permeability
MEASURED PROPERTY: Papp A→B (×10⁻⁶ cm/s)
Answer in ×10⁻⁶ cm/s, number only, no unit symbol.

Known results for compounds:
>  <SMILES>
C=CC(=O)N1CC[C@H](Nc2ccc(C(N)=O)c(Oc3ccc(Oc4ccccc4)cc3)n2)C1

>  <VALUE REPORTED>
3

$$$$
>  <SMILES>
C=CC(=O)N1CCN(c2ccc(C(N)=O)c(Oc3ccc(Oc4ccccc4)cc3)n2)CC1

>  <VALUE REPORTED>
13

$$$$
>  <SMILES>
C=CC(=O)N1C[C@H]2C[C@@H]1CN2c1ccc(C(N)=O)c(Oc2ccc(Oc3ccccc3)cc2)n1

>  <VALUE REPORTED>
8

$$$$
>  <SMILES>
C=CC(=O)N1CC[C@@H](Nc2ccc(C(N)=O)c(Oc3ccc(Oc4ccccc4)cc3)n2)C1

>  <VALUE REPORTED>
10

$$$$
>  <SMILES>
C=CC(=O)N[C@H]1CCN(c2ccc(C(N)=O)c(Oc3ccc(Oc4ccccc4)cc3)n2)C1

>  <VALUE REPORTED>
14

$$$$
>  <SMILES>
C=CC(=O)N1C2CCC1CN(c1ccc(C(N)=O)c(Oc3ccc(Oc4ccccc4)cc3)n1)C2

>  <VALUE REPORTED>
0.6

$$$$

Consider the record given below.
[in] Can you look up the measured Papp A→B of C=CC(=O)N1CCC[C@@H](n2nc(-c3ccc(Oc4ccccc4)cc3)c3c(N)ncnc32)C1 for me?
[out] 7.2
